From: patent US6635635B2

MEASUREMENT TYPE: melting point

Example entries and their recorded answers appear below.
Cl.O=C(Oc1ccc2c(c1)S(=O)(=O)NC1CCCN21)c1ccncc1 (stereo not drawn)    243 to 247 °C
O=C(Oc1ccc2c(c1)S(=O)(=O)NC1CCCN21)C1CC1 (stereo not drawn) [Example 18]    169 to 171 °C
O=C(Oc1ccc2c(c1)S(=O)(=O)NC1CCCN21)c1cccnc1 (stereo not drawn) [Ex. 37]    227 to 230 °C

Q: Which value of melting point has been reported for Cc1ccccc1C(=O)Oc1ccc2c(c1)S(=O)(=O)NC1CCCN21 (stereo not drawn) [Example 30] in the records?
A: 218 to 221 °C

Q: # get_value(readout='melting point', item= O=C(Oc1ccc2c(c1)S(=O)(=O)NC1CCCN21)C1CCCC1 (stereo not drawn) [Example 16] )
A: 148 to 150 °C

Q: Query (compound): O=C(C=Cc1ccccc1)Oc1ccc2c(c1)S(=O)(=O)NC1CCCN21 (stereo not drawn) [Example 23] ; field requested: melting point
A: 193 to 198 °C

Q: Need melting point, item Cl.O=C(Oc1ccc2c(c1)S(=O)(=O)NC1CCCN21)c1ccccn1 (stereo not drawn)
A: 227 to 230 °C

Q: Give its melting point value. Item: Cc1cccc(C(=O)Oc2ccc3c(c2)S(=O)(=O)NC2CCCN32)c1 (stereo not drawn) [Example 29]
A: 214 to 218 °C

Q: For O=C(Oc1ccc2c(c1)S(=O)(=O)NC1CCCN21)c1ccoc1 (stereo not drawn) [Example 35] , what is its reported melting point?
A: 185 to 187 °C

----------
Each entry below carries its reported melting point.

Known melting point results, listed for orientation:
O=C(Oc1ccc2c(c1)S(=O)(=O)NC1CCCN21)c1ccco1 (stereo not drawn)    205 to 208 °C
Cc1ccc(C(=O)Oc2ccc3c(c2)S(=O)(=O)NC2CCCN32)cc1 (stereo not drawn)    198 to 200 °C
O=C(Oc1ccc2c(c1)S(=O)(=O)NC1CCCN21)c1ccsc1 (stereo not drawn)    208 to 212 °C
O=C(Oc1ccc2c(c1)S(=O)(=O)NC1CCCN21)c1cccs1 (stereo not drawn)    212 to 214 °C
O=C(Oc1ccc2c(c1)S(=O)(=O)NC1CCCN21)c1ccc(-c2ccccc2)cc1 (stereo not drawn)    249 to 253 °C

We now examine a further molecule.
Q: Form field: reported melting point of N#Cc1ccc(C(=O)Oc2ccc3c(c2)S(=O)(=O)NC2CCCN32)cc1 (stereo not drawn)
A: 260 to 264 °C

----------
melting point values for the compounds below.

O=C(Cc1ccccc1)Oc1ccc2c(c1)S(=O)(=O)NC1CCCN21 (stereo not shown)    169 to 171 °C
O=C(Oc1ccc2c(c1)S(=O)(=O)NC1CCCN21)C1CCCCC1 (stereo not shown) [Example 14]    157 °C
COc1ccc(C(=O)Oc2ccc3c(c2)S(=O)(=O)NC2CCCN32)cc1 (stereo not shown) [Example 24]    216 to 221 °C

Next up:
Q: Fill in the blank: the reported melting point of O=C(Oc1ccc2c(c1)S(=O)(=O)NC1CCCN21)c1cccc(Cl)c1 (stereo not shown) [Example 26] is ____.
A: 243 to 247 °C

----------
MEASUREMENT TYPE: melting point

O=C(Oc1ccc2c(c1)S(=O)(=O)NC1CCCN21)c1ccc2ccccc2c1 (stereo not drawn)    207 to 210 °C
O=C(Oc1ccc2c(c1)S(=O)(=O)NC1CCCN21)C1CCC1 (stereo not drawn)    166 to 170 °C

Q: Suppose we examine the compound N#Cc1cccc(C(=O)Oc2ccc3c(c2)S(=O)(=O)NC2CCCN32)c1 (stereo not drawn) ; what melting point value has been reported?
A: 203 to 206 °C
